Test: chemical genetic growth profiling, strain panel (AID 1159580);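 also: tested at 20 µM; growth read once vehicle control cultures reached saturation at 30 °C; 1 = growth at the plate median or of vehicle wells; lower values mean less growth of the strain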
Settings: S. cerevisiae deletion strains, growth OD, locus YKR001C, strain vps1
In all, about 5,500 compounds went through this assay and about 2,000 (36%) were called active. Inconclusive results (about 18%) are left out. Rule as the data show it: active = normalized growth mostly below about 0.91 (no sharp cut-off); inconclusive = no clear call, values can overlap the other calls; inactive = mostly above about 0.92. The list shows a part of the results.
Assign a class; possible classes are label 1 (active), label 0 (inactive)

-- ask Per the assay record, what outcome was assigned to `COc1cc(C(=O)N2CCOCC2)cc(OC)c1OC` ?
-- reply label 1

-- ask How about CO[C@@H]1C[C@H](O[C@H]2CC[C@]3(C)C4CC[C@]5(C)[C@@H](C6=CC(=O)OC6)CC[C@]5(O)[C@@H]4CC[C@]3(O)C2)O[C@H](C)[C@@H]1O (some centres undefined) ?
-- reply label 1

-- ask How about `COc1cc(C(=O)O)cc(OC)c1OC` ?
-- reply label 0

-- ask How about `COC(=O)[C@H]1[C@H]2C[C@H]3c4[nH]c5cc(OC)ccc5c4CCN3C[C@H]2C[C@@H](OC(=O)c2cc(OC)c(OC)c(OC)c2)[C@@H]1OC` ?
-- reply label 0

-- ask How about CC(=O)O[C@@H]1CC2C(C)(C)CCC[C@]2(C)C2CC[C@]3(C)C(=CC(=O)O[C@H]3c3ccoc3)[C@@]21C (some centres undefined) ?
-- reply label 0

-- ask How about CCOC(=O)CC(SP(=S)(OC)OC)C(=O)OCC (centres undefined) ?
-- reply label 0

-- ask How about `NC(=O)c1ccccc1O` ?
-- reply label 0

-- ask How about COC1CC(O[C@H]2CC[C@]3(C=O)C4CC[C@]5(C)C(C6=CC(=O)OC6)CC[C@]5(O)C4CC[C@]3(O)C2)OC(C)C1O (some centres undefined) ?
-- reply label 0

-- ask How about CC(C)=CC1C(CO)C1(C)C (centres undefined) ?
-- reply label 0

* * *

Assay: chemical genetic growth profiling, strain panel (AID 1159580);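 also: tested at 20 µM; growth read once vehicle control cultures reached saturation at 30 °C; 1 = growth at the plate median or of vehicle wells; lower values mean less growth of the strain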
Conditions: S. cerevisiae deletion strains, growth OD, locus YBR279W, strain paf1, stronger effect = lower value
Screen size: about 5,500 compounds; about 2,000 (36%) were called active. About 18% were inconclusive and are not listed. The list shows a part of the results.
Answer each item with its documented normalized growth.
Enter a number only.

-- ask Any idea what normalized growth was measured for `COC1=CC(=O)C=C(OC)C1=O` ?
-- reply 0.992

-- ask How about `C=CCSSSCC=C` ?
-- reply 0.991

-- ask How about C[C@@H](CO)NC(=O)C1C=C2c3cccc4[nH]cc(c34)C[C@H]2N(C)C1 (some centres not stated) ?
-- reply 1

-- ask How about `C=CCSCC=C` ?
-- reply 0.992

-- ask How about CC(=O)N1CCN(c2ccc(OCC3CO[C@](Cn4ccnc4)(c4ccc(Cl)cc4Cl)O3)cc2)CC1 (some centres not stated) ?
-- reply 0.0988

-- ask How about CC1=CC(=O)C2C(C)(C)CCC[C@]2(C)[C@@]1(O)CCc1ccoc1 (some centres not stated) ?
-- reply 0.975

-- ask How about `C=CCSSCC=C` ?
-- reply 1.02

* * *

Test: chemical genetic growth profiling, strain panel (AID 1159580);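 also: tested at 20 µM; growth read once vehicle control cultures reached saturation at 30 °C; 1 = growth at the plate median or of vehicle wells; lower values mean less growth of the strain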
Settings: S. cerevisiae deletion strains, growth OD, locus YNL233W, strain BNI4
Out of some 5,500 compounds screened, about 2,000 (36%) were called active. Not shown: some 18% with an inconclusive outcome. Cut-off read from the data, not from the text of the source: active = normalized growth mostly below about 0.91 (no sharp cut-off); inconclusive = no clear call, values can overlap the other calls; inactive = mostly above about 0.92. Some of the results follow.
Assign a class; possible classes are 1 (active), 0 (inactive)

-- ask Per the assay record, what outcome was assigned to COC1CC(O[C@H]2CC[C@]3(C=O)C4CC[C@]5(C)C(C6=CC(=O)OC6)CC[C@]5(O)C4CC[C@]3(O)C2)OC(C)C1O (some centres undefined) ?
-- reply 0

-- ask How about `NCCCCN` ?
-- reply 0

-- ask How about CCC(=O)O[C@]1(C(=O)CCl)[C@@H](C)CC2C3CCC4=CC(=O)C=C[C@]4(C)[C@@]3(F)[C@@H](O)C[C@@]21C (some centres undefined) ?
-- reply 0

-- ask How about CC1(C)S[C@@H]2[C@H](NC(=O)C(C(=O)O)c3ccccc3)C(=O)N2[C@H]1C(=O)O (some centres undefined) ?
-- reply 0

-- ask How about `C[N+]1(C)C[C@H](O)[C@H](C(=O)[O-])C1` ?
-- reply 0

-- ask How about CC(=O)N1CCN(c2ccc(OCC3CO[C@](Cn4ccnc4)(c4ccc(Cl)cc4Cl)O3)cc2)CC1 (some centres undefined) ?
-- reply 1

-- ask How about `COC(=O)[C@H]1[C@H]2C[C@H]3c4[nH]c5cc(OC)ccc5c4CCN3C[C@H]2C[C@@H](OC(=O)c2cc(OC)c(OC)c(OC)c2)[C@@H]1OC` ?
-- reply 0

-- ask How about `CO[C@@H]1[C@@H](OC(N)=O)[C@@H](O)[C@H](Oc2ccc3c(O)c(NC(=O)c4ccc(O)c(CC=C(C)C)c4)c(=O)oc3c2C)OC1(C)C` ?
-- reply 0

-- ask How about `O=C(CCCN1CCC(O)(c2ccc(Cl)cc2)CC1)c1ccc(F)cc1` ?
-- reply 1

-- ask How about CCC(=O)OCC(=O)[C@@]1(OC(=O)CC)[C@@H](C)CC2C3CCC4=CC(=O)C=C[C@]4(C)C3(F)[C@@H](O)C[C@@]21C (some centres undefined) ?
-- reply 0

-- ask How about C[C@@H](CO)NC(=O)C1C=C2c3cccc4[nH]cc(c34)C[C@H]2N(C)C1 (some centres undefined) ?
-- reply 0

-- ask How about `CC1(C)[C@@H]2CC[C@@]1(C)C(=O)C2` ?
-- reply 0

-- ask How about `COC(=O)NC(=S)Nc1ccccc1NC(=S)NC(=O)OC` ?
-- reply 0

-- ask How about C[C@@H]1CCC2[C@](C)(CO)[C@@H](O)CC[C@]2(C)[C@@]12CC[C@@](CO)(CCO)O2 (some centres undefined) ?
-- reply 0

Every entry's value here was drawn from PubChem BioAssay AID1159580.
